System: Echinochloa crus-galli (ECHCG)
Assay: Pre-emergence herbicidal activity, glasshouse pot test
Format: in vivo
Conditions: Echinochloa crus-galli, 312 h; Rate 250 g/ha; pre-emergence spray; evaluated after 13 days; read-out: Pre-emergence activity ECHCG (100=total damage to plant; 0=no damage to plant)
For each record, write down the corresponding pest or weed control at 250 g/ha.
A complete answer gives the number followed by the unit.

Value of measured pest or weed control at 250 g/ha for the entry CCc1ccc(Oc2ccc(C(F)(F)F)cn2)cc1C1=C(O)CC2(CCOCC2)CC1=O [Example A-267] : 100%

Report pest or weed control at 250 g/ha for every entry below.
1. CCc1ccc(Oc2nc3ccc([N+](=O)[O-])cc3s2)cc1C1=C(O)CC2(CCOCC2)CC1=O [Example A-265]
2. CCc1ccc(Oc2ncc(Cl)cn2)cc1C1=C(O)CC(C)(C)CC1=O [Example A-288]

Response given:
["90%", "100%"]

Report pest or weed control at 250 g/ha for every entry below.
1. CCc1ccc(Oc2ccc(C(F)(F)F)cn2)cc1C1=C(O)[C@H]2CC[C@H](C2)C1=O [Example A-334]
2. CCc1ccc(Oc2ccc(C(F)(F)F)cc2[N+](=O)[O-])cc1C1=C(O)[C@H]2CC[C@H](C2)C1=O [Example A-344]
3. Cc1ccc(Oc2ccc(Cl)cc2Cl)cc1C1=C(O)C(C)(C)OC(C)(C)C1=O [Example A-2]

Response given:
["100%", "100%", "0%"]

Report pest or weed control at 250 g/ha for every entry below.
1. CCc1ccc(Oc2ccc(Cl)cc2Cl)cc1C1=C(O)CCC(C)(C)C1=O [Example A-111]
2. CCc1ccc(Oc2ccc(Cl)cc2Cl)cc1C1=C(O)[C@@H]2CC[C@](C)(C1=O)C2(C)C (single isomer, unassigned) [Example A-94]
3. CCc1ccc(Oc2cccc(C(F)(F)F)c2)cc1C1=C(O)C(C)(C)OC(C)(C)C1=O [Example A-185]
4. CCc1ccc(Oc2ccc(Cl)c(F)c2)cc1C1=C(O)CCCC1=O [Example A-68]
5. CCc1ccc(Oc2ccc(Cl)c(F)c2)cc1C1=C(O)C(C)(C)CCC1=O [Example A-52]
6. CCc1ccc(Oc2ccccc2Cl)cc1C1=C(O)C(C)(C)OC(C)(C)C1=O [Example A-6]
7. CCc1ccc(Oc2ncc(C(F)(F)F)cc2Cl)cc1C1=C(O)CC2(CCOCC2)CC1=O [Example A-272]
8. CCc1ccc(Oc2ccc(C#N)c(Cl)c2)cc1C1=C(O)CC2(CCOCC2)CC1=O [Example A-277]

Response given:
40%
90%
30%
100%
60%
30%
100%
100%

Report pest or weed control at 250 g/ha for every entry below.
1. CCc1ccc(Oc2ccc(F)cc2)cc1C1=C(O)[C@@H]2CC[C@](C)(C1=O)C2(C)C [Example A-239]
2. CCc1ccc(Oc2nc3cccc(C#N)c3s2)cc1C1=C(O)C(C)(C)OC(C)(C)C1=O [Example A-220]

Response given:
1: 90%; 2: 30%

----------
System: Alopecurus myosuroides (ALOMY)
Experiment: Pre-emergence herbicidal activity, glasshouse pot test
Type: in vivo
Conditions: Alopecurus myosuroides, 312 h; Rate 250 g/ha; pre-emergence spray; evaluated after 13 days; read-out: Pre-emergence activity ALOMY (100=total damage to plant; 0=no damage to plant)
Would you please tag the item Met when its pest or weed control at 250 g/ha is 50% or above, and Not met when it is below?

Some solved cases for reference:
Challenge: Determine whether measured pest or weed control at 250 g/ha meets or exceeds 50% for `CCc1ccc(Oc2ccc([N+](=O)[O-])c(C#N)c2)cc1C1=C(O)C(C)(C)OC(C)(C)C1=O`
Response given: Not met

Challenge: Determine whether measured pest or weed control at 250 g/ha meets or exceeds 50% for `CCc1ccc(Oc2ccc([N+](=O)[O-])c(Cl)c2)cc1C1=C(O)CC2(CCOCC2)CC1=O`
Response given: Not met

Challenge: Determine whether measured pest or weed control at 250 g/ha meets or exceeds 50% for `CCc1ccc(Oc2ccc(C(F)(F)F)cn2)cc1C1=C(O)[C@H]2CC[C@H](C2)C1=O`
Response given: Met

Challenge: Determine whether measured pest or weed control at 250 g/ha meets or exceeds 50% for `CCc1ccc(Oc2ccc3nc(Cl)cn3n2)cc1C1=C(O)C(C)(C)OC(C)(C)C1=O`
Response given: Not met

Challenge: Determine whether measured pest or weed control at 250 g/ha meets or exceeds 50% for `CCc1ccc(Oc2ccc3cc(Cl)ccc3n2)cc1C1=C(O)CC(C)(C)CC1=O`
Response given: Met

Challenge: Determine whether measured pest or weed control at 250 g/ha meets or exceeds 50% for `CCc1ccc(Oc2ccc(Br)cc2Cl)cc1C1=C(O)[C@@H]2CC[C@](C)(C1=O)C2(C)C`
Response given: Not met

Challenge: Determine whether measured pest or weed control at 250 g/ha meets or exceeds 50% for `CCc1ccc(Oc2ccc(Br)cc2Cl)cc1C1=C(O)C(C)(C)OC(C)(C)C1=O`
Response given: Met

Challenge: Determine whether measured pest or weed control at 250 g/ha meets or exceeds 50% for `CCc1ccc(Oc2ccc([N+](=O)[O-])c(Cl)c2)cc1C1=C(O)C(C)(C)OC(C)(C)C1=O`
Response given: Met

Challenge: Determine whether measured pest or weed control at 250 g/ha meets or exceeds 50% for `CCc1ccc(Oc2ncc(C(F)(F)F)cc2Cl)cc1C1=C(O)[C@H]2CC[C@H](C2)C1=O`
Response given: Met

Challenge: Determine whether measured pest or weed control at 250 g/ha meets or exceeds 50% for `CCc1ccc(Oc2ccc(C#N)c(Cl)c2)cc1C1=C(O)CC2(CCOCC2)CC1=O`
Response given: Not met

Others:
Challenge: Determine whether measured pest or weed control at 250 g/ha meets or exceeds 50% for `CCc1ccc(Oc2cc(C(F)(F)F)cc(Cl)n2)cc1C1=C(O)C(C)(C)OC(C)(C)C1=O`
Response given: Not met

Challenge: Determine whether measured pest or weed control at 250 g/ha meets or exceeds 50% for `CCc1ccc(Oc2ccc(C(F)(F)F)cc2Cl)cc1C1=C(O)[C@H]2CC[C@H](C2)C1=O`
Response given: Met

Challenge: Determine whether measured pest or weed control at 250 g/ha meets or exceeds 50% for `CCc1ccc(Oc2ccc3cc(Cl)ccc3n2)cc1C1=C(O)[C@H]2CC[C@H](C2)C1=O`
Response given: Met

Challenge: Determine whether measured pest or weed control at 250 g/ha meets or exceeds 50% for CCc1ccc(Oc2ccc(Cl)cc2F)cc1C1=C(O)[C@H]2CC[C@H](C2)C1=O (single isomer, unassigned)
Response given: Met
